Reported βarrestin2 assay EMAX, % of max U69,593 by item:
# targetUnderTest: human KOR (Homo sapiens)
# Sequence (P41145 whole entry): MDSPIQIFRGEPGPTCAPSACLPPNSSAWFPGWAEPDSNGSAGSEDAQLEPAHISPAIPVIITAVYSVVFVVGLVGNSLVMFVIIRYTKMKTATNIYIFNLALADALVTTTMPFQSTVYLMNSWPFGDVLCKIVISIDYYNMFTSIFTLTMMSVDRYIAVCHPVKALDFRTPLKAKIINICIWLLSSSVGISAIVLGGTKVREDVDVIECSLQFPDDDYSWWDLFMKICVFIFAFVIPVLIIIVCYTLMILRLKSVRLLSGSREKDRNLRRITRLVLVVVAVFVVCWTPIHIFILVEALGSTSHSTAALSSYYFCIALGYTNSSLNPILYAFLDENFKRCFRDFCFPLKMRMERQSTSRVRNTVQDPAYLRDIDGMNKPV
# assayMethodText: βarrestin2 recruitment, high content imaging in U2OS-hKOR-βarr2-GFP cells
# Type: cell-based

Brc1ccc(CSc2nnc(-c3ccccn3)n2Cc2cccs2)cc1 [3.2] ... 94 ± 2 % of max U69,593

Qu. For Ic1ccc(CSc2nnc(-c3ccccn3)n2Cc2cccs2)cc1 [2.2] , what is its reported βarrestin2 assay EMAX, % of max U69,593?
Ans. 123 ± 19 % of max U69,593

Qu. Which βarrestin2 assay EMAX, % of max U69,593 value is on record for FC(F)(F)c1ccc(Cl)c(CSc2nnc(-c3ccccn3)n2Cc2cccnc2)c1 [1.3] ?
Ans. 65 ± 6 % of max U69,593

Qu. I am curious: what βarrestin2 assay EMAX, % of max U69,593 value has been reported for FC(F)(F)c1ccc(Cl)c(CSc2nnc(-c3ccccn3)n2Cc2ccco2)c1 [1.1] ?
Ans. 56 ± 5 % of max U69,593

Qu. Any idea what its βarrestin2 assay EMAX, % of max U69,593 is? The molecule is Ic1ccc(CSc2nnc(-c3ccccn3)n2Cc2cccnc2)cc1 [2.3]
Ans. 101 ± 7 % of max U69,593

Qu. Which βarrestin2 assay EMAX, % of max U69,593 is listed for Ic1ccc(CSc2nnc(-c3ccccn3)n2Cc2ccco2)cc1 [2.1] ?
Ans. 228 ± 96 % of max U69,593

Qu. Tell me the measured βarrestin2 assay EMAX, % of max U69,593 of FC(F)(F)c1ccc(Cl)c(CSc2nnc(-c3ccccn3)n2Cc2cccs2)c1 [1.2] , please.
Ans. 147 ± 25 % of max U69,593

---

# Lookup of reported pEC50 keyed by entry
# targetUnderTest: human KOR (Homo sapiens)
# assayMethodText: βarrestin2 recruitment, high content imaging in U2OS-hKOR-βarr2-GFP cells
# Format: cell-based
As a rule, pEC50 stands for the negative log10 of the concentration, concentration in M.

# count of solved cases: 3
FC(F)(F)c1ccc(Cl)c(CSc2nnc(-c3ccccn3)n2Cc2cccs2)c1 ... 5.20
Ic1ccc(CSc2nnc(-c3ccccn3)n2Cc2ccco2)cc1 ... 4.87
FC(F)(F)c1ccc(Cl)c(CSc2nnc(-c3ccccn3)n2Cc2cccnc2)c1 ... 4.99

Qu. Which pEC50 reading was recorded for the compound Ic1ccc(CSc2nnc(-c3ccccn3)n2Cc2cccs2)cc1 ?
Ans. 5.45

Qu. Which pEC50 reading was recorded for the compound Brc1ccc(CSc2nnc(-c3ccccn3)n2Cc2cccs2)cc1 ?
Ans. 5.71

Qu. Using the record for FC(F)(F)c1ccc(Cl)c(CSc2nnc(-c3ccccn3)n2Cc2ccco2)c1 , report its pEC50.
Ans. 5.06

---

Catalogue of compounds with associated ERK1/2 phosphorylation % U69,593 at 10 μM
# targetUnderTest: human KOR (Homo sapiens)
# assayMethodText: In-cell western ERK1/2 phosphorylation in CHO-hKOR cells
# Assay type: cell-based

Examples with their reported ERK1/2 phosphorylation % U69,593 at 10 μM follow.
Brc1ccc(CSc2nnc(-c3ccccn3)n2Cc2cccnc2)cc1 [3.3] ... 112 ± 6 % U69,593
Ic1ccc(CSc2nnc(-c3ccccn3)n2Cc2cccs2)cc1 [2.2] ... 131 ± 4 % U69,593
FC(F)(F)c1ccc(Cl)c(CSc2nnc(-c3ccccn3)n2Cc2cccnc2)c1 [1.3] ... 107 ± 7 % U69,593
Ic1ccc(CSc2nnc(-c3ccccn3)n2Cc2cccnc2)cc1 [2.3] ... 110 ± 8 % U69,593

Qu. What ERK1/2 phosphorylation % U69,593 at 10 μM value was documented for this compound, Ic1ccc(CSc2nnc(-c3ccccn3)n2Cc2ccco2)cc1 [2.1] ?
Ans. 113 ± 8 % U69,593

These entries and their values trace back to paper PMC4830356.
